Numbers sourced from the supplement of paper PMC10065799.

Target: FGFR1 (UniProt P11362)
Sequence (P11362 whole entry, looked up): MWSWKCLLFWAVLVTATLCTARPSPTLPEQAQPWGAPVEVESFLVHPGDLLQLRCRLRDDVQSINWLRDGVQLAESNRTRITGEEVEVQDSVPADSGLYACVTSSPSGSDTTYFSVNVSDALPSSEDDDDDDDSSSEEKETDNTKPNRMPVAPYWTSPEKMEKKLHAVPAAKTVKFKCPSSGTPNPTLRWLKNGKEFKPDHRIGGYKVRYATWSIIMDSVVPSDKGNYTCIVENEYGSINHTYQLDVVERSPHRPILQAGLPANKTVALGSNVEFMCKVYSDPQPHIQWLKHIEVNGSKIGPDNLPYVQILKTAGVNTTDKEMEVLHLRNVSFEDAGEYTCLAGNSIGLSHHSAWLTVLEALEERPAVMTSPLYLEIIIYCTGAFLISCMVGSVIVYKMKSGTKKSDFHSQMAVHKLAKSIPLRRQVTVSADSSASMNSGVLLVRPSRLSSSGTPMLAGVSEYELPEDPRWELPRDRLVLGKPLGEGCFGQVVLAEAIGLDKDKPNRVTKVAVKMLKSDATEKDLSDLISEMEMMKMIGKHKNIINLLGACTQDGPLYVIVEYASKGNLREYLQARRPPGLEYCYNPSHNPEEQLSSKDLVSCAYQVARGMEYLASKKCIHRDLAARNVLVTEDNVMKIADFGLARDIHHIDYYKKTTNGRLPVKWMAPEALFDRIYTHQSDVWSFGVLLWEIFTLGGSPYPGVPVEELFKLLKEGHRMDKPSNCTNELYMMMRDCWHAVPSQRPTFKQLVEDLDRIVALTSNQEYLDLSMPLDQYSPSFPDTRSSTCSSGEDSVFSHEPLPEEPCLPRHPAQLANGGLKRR
Assay: phosphorylation enrichment, bacterial display (enrichment ratio); higher = better substrate or ligand; peptides without Tyr show the background;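 note: 11-residue human phosphosite peptides and single-mutation variants displayed on the E. coli surface, counted by deep sequencing, each peptide's frequency after selection divided by its frequency in the unselected input library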;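 note: frequency after pTyr selection over input frequency; kinase dosed for 20-30% of maximal phosphorylation in three min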
MEASUREMENT_NAME: phosphorylation enrichment
Output: the number by itself.

SVTCTCSPALN [TP53_Y126_Y126C] = 0.585
TIQIMYGCDVG [HLA-A_Y123] = 0.476
SHSMKYFDTAV [HLA-C_Y31_R30K] = 0.396

[in] Give phosphorylation enrichment for the following sequence: TRSYDYTEGGD [FGF7_Y58_M59T]
[out] 0.61

[in] Give phosphorylation enrichment for the following sequence: RREWYYEVIIA [BACE1_Y260_V265A]
[out] 4.47

[in] Give phosphorylation enrichment for the following sequence: CTTIHYDFMCN [TP53_Y234_N235D_YF]
[out] 0.544

[in] Give phosphorylation enrichment for the following sequence: RHPYFYAPELL [ALB_Y174]
[out] 12.7

[in] Give phosphorylation enrichment for the following sequence: AIDDKYSRREE [SART1_Y685]
[out] 0.488
